In this section, each of the molecules is paired with its reported AC50.
target: T. gondii ME49Luc in IFN-y HeLa, luciferase, 72 h; experiment: T. gondii growth inhibition with IFN-gamma, dose response, cell-based, ME49Luc, HeLa, luciferase, 72 h (AID 1259418)
Inconclusive results are not listed. Active and inactive are the calls of the source.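 The calls were made as follows: active = fitted half-maximal concentration of signal decrease at or below twice the sample's top tested concentration; inconclusive = flat curve between -70 and -30 percent, or poor fit; inactive = flat within 30 percent, signal rise, or potency above limit.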

CS(=O)(=O)N1CCc2sc(C(=O)Nc3ccc(Cl)cc3)cc21 = 3.36 µM
COc1cccc(-c2ccc([C@H]3[C@H]4CN(C(=O)Cc5ccncc5)CCCCN4[C@H]3CO)cc2)c1 = > 39 µM (inactive)
O=C(Cc1cccnc1)N1CC(=O)N2[C@H](C1)[C@@H](c1ccc(/C=C/c3ccccc3)cc1)[C@@H]2CO = 19.8 µM
O=C(c1cccc2[nH]ccc12)N1CCCC1c1nc(-c2cccc(Cl)c2)no1 (centres undefined) = 23.3 µM
O=C(NC1CCCC1)N1CCCCN2[C@H](CO)[C@H](c3ccc(-c4cccnc4)cc3)[C@H]2C1 = 24.1 µM

stdin: Which AC50 is listed for "CC(C)C#Cc1ccc([C@@H]2[C@@H](CO)N3C(=O)CN(S(=O)(=O)c4ccccc4)C[C@H]23)cc1" ?
stdout: 19.2 µM

stdin: Which measured AC50 value corresponds to "O=S(=O)(c1cccs1)N1CCC2(CC1)NCCN=C2NCc1cccc(F)c1" ?
stdout: 26.1 µM

stdin: Need AC50 of "CCc1cnc(N2[C@H](C#N)[C@H](c3ccc(-c4cccc(F)c4)cc3)[C@H]2CO)s1" , thanks.
stdout: 21.3 µM

stdin: Can you share its AC50? I mean this molecule: COc1ccccc1Cn1ncc2c1CCCC2NC(=O)c1cc(-c2cccs2)no1 (centres undefined)
stdout: 14.1 µM
